All values here come from PubChem BioAssay (NCI).

# Test system: U251 CNS
# experiment: NCI-60 one-dose screen, 48 h (100 = growth as untreated, 0 = no growth, -100 = all killed)
# testParameters: 10 µM unless noted
Compounds without any hit were thinned out: in the full panel of roughly 83,000, 20% have a hit.
Label MET when growth is at or above 30%; anything below gets NOT MET.

• C=C(C)[C@@H]1CC[C@]2(C(=O)ON)CC[C@]3(C)[C@H](CC[C@@H]4[C@@]5(C)C/C(=C/c6ccc(Br)cc6)C(=O)C(C)(C)[C@@H]5CC[C@]43C)[C@@H]12 = MET
• COc1ccc2c(c1)c(-c1nn3c(=O)cc(-c4ccccc4)nc3s1)cn2C = NOT MET
• COC[C@]12CC[C@@H](C)[C@H](C)[C@H]1C1=CC[C@@H]3[C@@]4(C)CCCNC(C)(C)[C@@H]4CC[C@@]3(C)[C@]1(C)CC2 = NOT MET
• O=C(COc1ccc(C2SCC(=O)N2c2ccccc2)cc1)c1ccccc1 (configuration not stated) = MET
• CCCC(=O)NC(c1cccnc1)c1cc(Cl)c2cccnc2c1O (configuration not stated) = NOT MET
• Clc1ccc(-c2csc(N/N=C/c3nc4ccccc4n3C3CC3)n2)cc1 = MET
• COc1ccc(/C=C/C(=O)c2nnn(-c3ccc(C(=O)O)cc3)c2C)cc1OC = MET
• O=c1[nH]c2cc(Cl)ccc2n1C1CCN(c2ccc3nnc(Cl)n3n2)CC1 = MET

Lab note: next molecule to report on.
Query: Identify whether the reported growth of the following molecule is 30% or greater: Oc1ccc(CSc2nnc(-c3ccc(Oc4ccccc4)cc3)n2-c2ccccc2)c2cccnc12
Response: NOT MET

* * *

# System: CAKI-1 renal
# experiment: NCI-60 one-dose screen, 48 h (100 = growth as untreated, 0 = no growth, -100 = all killed)
# testParameters: 10 µM
Compounds without any hit were thinned out: in the full panel of roughly 83,000, 20% have a hit.
experimentalEndpoint: growth (%)
Answers are plain numbers, in %.

Solved cases (2 shown):
- Cn1cc2c(c1)-c1c(sc3nc(-c4ccc(NC(=O)Nc5cc(C(C)(C)C)on5)cc4)cn13)CC2: 28.1
- CNC(=O)c1cc(Oc2ccc3nc(NC(=O)c4ccc(CN5CCN(C)CC5)c(C(F)(F)F)c4)sc3c2)ccn1: 53.3

# per-item lookup of growth; items listed below
1. O=c1oc2ccc(-c3ccc(F)cc3F)cc2c(=O)n1-c1cccc(C(F)(F)F)c1
2. Oc1ccc(-c2nnc(SCc3ccc(O)c4ncccc34)n2-c2ccccc2)cc1
3. O=C(CCCCCCN1CC(=O)N2[C@@H](c3ccccc3)c3[nH]c4ccccc4c3C[C@H]2C1=O)NO

Response:
[-12.2, 16.1, 65.5]

* * *

# Test system: SK-OV-3 ovarian
# experiment: NCI-60 one-dose screen, 48 h
# testParameters: 10 µM unless noted
About 83,000 compounds went through this panel and 20% of them were active in at least one assay; those are over-represented in the sample as a whole. Activity calls are given as the source filed them. Rule for the calls: active = growth percent below 10; inactive = the rest.
Give your call using only these classes: t (active), f (inactive)

• O=C(Nc1ccccc1)Nc1nc2ccc([N+](=O)[O-])cc2s1 = t

Query: Test call for this compound, please: Cc1cc(O)c(=O)cc2c1C[C@H]1CC(C)(C)/C=C/C[C@]3(C)Oc4cc(=O)c(O)cc(C)c4C[C@H]3C[C@H](O)[C@@]1(C)O2
Response: t

* * *

# Test system: SK-MEL-28 melanoma
# experiment: NCI-60 one-dose screen, 48 h
# testParameters: 10 µM unless noted
Compounds without any hit were thinned out: in the full panel of roughly 83,000, 20% have a hit. The source made the active and inactive calls. The calls were made as follows: active = growth percent below 10; inactive = the rest.
Tick one outcome: active, inactive

Answered examples (3):
- Cn1cc2c(c1)-c1c(sc3nc(-c4ccc(NC(=O)Nc5cc(C(C)(C)C)on5)cc4)cn13)CC2: inactive
- CN1CCN(c2ccc3c(C(N)=O)c(NC(=O)c4ccc(C(C)(C)C)cc4)sc3c2)CC1: inactive
- C=CCn1c(SCC(=O)Nc2cccc(C(=O)/C=C/c3ccc(Cl)cc3)c2)nc2ccccc2c1=O: inactive

Query: Please share the test call associated with C/C(Cc1ccc(Cl)cc1)=C(/c1ccccc1)c1ccc(OCCN)cc1 .
Response: inactive

Query: So what was the verdict on CCN(CC)CCN1C(=O)c2c(c3c4cc(Br)ccc4[nH]c3c3ccc4ccccc4c23)C1=O in this test?
Response: active

Query: Returns: the outcome recorded for CCOC(=O)c1c(Nc2ccccc2)nn2c(-c3ccc(OC)c(OC)c3)ccnc12 in this assay.
Response: inactive

Query: Tell me the recorded outcome of this test for O=C(COc1ccc(C2SCC(=O)N2c2ccc(F)cc2)cc1)c1ccccc1 (centres undefined) .
Response: inactive

Query: Assay outcome for C=CCn1c(SCC(=O)Nc2cccc(C(=O)/C=C/c3ccc(C)cc3)c2)nc2ccccc2c1=O : what was it?
Response: inactive

Query: // param item: COc1cc2cc(Oc3ccc(NC(=O)c4cccc(C(F)(F)F)c4)cc3)c(C)nc2cc1OCCN(C)C ; yields the recorded call
Response: inactive

* * *

Please respond with reported growth for every item in the list.
# Tested on: IGROV1 ovarian
# experiment: NCI-60 one-dose screen, 48 h (100 = growth as untreated, 0 = no growth, -100 = all killed)
# testParameters: 10 µM unless noted
The panel holds about 83,000 compounds, 20% with a hit somewhere; the sample as a whole holds those more often.
Give bare numbers, in %.

Consider the following illustrative entries.
- COc1ccc([C@@H]2[C@@H](O)C(=O)N2c2cc(OC)c(OC)c(OC)c2)cc1: 27.9
- CC1(COc2ccc3ncc(C#Cc4cncc(C(=O)Nc5cc(C(C)(C)C)on5)c4)n3n2)COC1: 25

Count: 5. Required value per item: growth.
1. O=C1/C(=C/c2ccccc2[N+](=O)[O-])Oc2ccc(O)cc21
2. O=C(CCCCCCN1CC(=O)N2[C@@H](c3cc(F)cc(F)c3)c3[nH]c4ccccc4c3C[C@H]2C1=O)NO
3. CN1CCN(c2ccc3c(c2)nc(NNC(=O)c2ccncn2)c2cccn23)CC1
4. COC(=O)c1nc(-c2ccc(C)cc2)oc1S(=O)(=O)N1CCN(c2oc(-c3ccccc3)nc2C#N)CC1
5. O=C(CCCCCCN1CC(=O)N2[C@@H](c3ccc(Cl)c(F)c3)c3[nH]c4ccccc4c3C[C@H]2C1=O)NO

Response:
1. 33.5
2. 49.1
3. 22.4
4. 106
5. 64.5

Each compound below has a reported value. Please supply its growth.
1. CN1C(=O)/C(=C/C=C/c2ccco2)SC1=S
2. C#C[C@]1(O)CC[C@H]2[C@@H]3CC=C4c5sc(-c6ccc(OC)cc6)nc5CC[C@]4(C)[C@H]3CC[C@@]21C
3. C=CCn1c(SCC(=O)Nc2cccc(C(=O)/C=C/c3ccc(OC)c(OC)c3)c2)nc2ccccc2c1=O

Response:
[54.3, 70.2, 90.5]

* * *

# System: NCI-H460 lung
# experiment: NCI-60 one-dose screen, 48 h (100 = growth as untreated, 0 = no growth, -100 = all killed)
# testParameters: 10 µM unless noted
About 83,000 compounds went through this panel and 20% of them were active in at least one assay; those are over-represented in the sample as a whole.
Note to self: growth under 10% means 1, ties and anything higher get -1.

The examples below pair each entry with its known result.
• Cc1cc(O)c(=O)cc2c1C[C@H]1CC(C)(C)/C=C/C[C@]3(C)Oc4cc(=O)c(O)cc(C)c4C[C@H]3C[C@H](O)[C@@]1(C)O2 = 1
• CCOC(=O)c1c(NC(=O)c2ccc(F)cc2F)sc2c1CCC(=O)C2 = -1
• COc1ccc(Cn2cc3c(c2-c2cc(OC)c(OC)c(OC)c2)CCCc2cnoc2-3)cc1N = -1
• C#C[C@]1(O)CC[C@H]2[C@@H]3CC=C4c5sc(-c6ccccn6)nc5CC[C@]4(C)[C@H]3CC[C@@]21C = -1
• N#C/C(=C\c1ccc(-c2ccc(F)cc2)o1)C(=O)Nc1ncc(Cc2ccc(Cl)cc2Cl)s1 = 1

Query: Quick check: growth of C#C[C@]1(O)CC[C@H]2[C@@H]3CC=C4c5sc(Nc6nc(C)cc(OC)n6)nc5CC[C@]4(C)[C@H]3CC[C@@]21C under 10%?
Response: -1

Query: Find out if reported growth for Oc1ccc(CSc2nnc(-c3ccncc3)o2)c2cccnc12 is less than 10%
Response: 1

Query: is_below(growth, 10%) for COc1ccc(-c2nc3cc(Cl)c(Cl)cc3n2CC(=O)N=Nc2c(O)[nH]c3ccc(Cl)cc23)cc1 ?
Response: -1

* * *

# Tested on: RXF 393 renal
# experiment: NCI-60 one-dose screen, 48 h
# testParameters: 10 µM unless noted
# Protocol: Cells are grown in 96 well plates and exposed to the test compound for 48 hours. Compounds are tested at a single concentration, which is 10^-5 M for most compounds. The reported endpoint is percent growth (GI% or GIPRCNT), where numbers from 0 - 100% represent growth inhibition, and numbers from -100% - 0 represent cell death. For example, a value of 40 represents 60% growth inhibition. A value of 0 means no net growth occurred over the course of the experiment. […]
The panel holds about 83,000 compounds, 20% with a hit somewhere; the sample as a whole holds those more often. Active and inactive are the calls of the source. The calls were made as follows: active = growth percent below 10; inactive = the rest.
Can you answer with just one of these options? active, inactive

• Cc1ccccc1NC1CC(=O)N(c2ccc(Cl)cc2Cl)C1=O (stereo not given) = inactive
• CC1CCc2c(sc3nc(SCC(=O)N/N=C/c4cccc(O)c4O)n(-c4ccccc4)c(=O)c23)C1 (stereo not given) = active
• O=C(Nc1cc(Cl)cc(Cl)c1)Nc1ccc2oc(=O)ccc2c1 = inactive
• C/C(Cc1ccc(Cl)cc1)=C(/c1ccccc1)c1ccc(OCCN)cc1 = inactive
• O=C(CSc1ccc(-c2nc3ccccc3[nH]2)cn1)N1CCN(c2ccccc2F)CC1 = inactive
• O=C(Nc1ccccc1)Nc1nc2ccc([N+](=O)[O-])cc2s1 = active
• Cc1cc(C(=O)Nc2ccc(SC#N)cc2)c(C)o1 = inactive
• O=C1NC(=O)c2c1c1c3ccccc3ccc1c1[nH]c3ccccc3c21 = active
• Cc1cc(O)c(=O)cc2c1C[C@H]1CC(C)(C)/C=C/C[C@]3(C)Oc4cc(=O)c(O)cc(C)c4C[C@H]3C[C@H](O)[C@@]1(C)O2 = active

Query: recorded result category for CS(=O)(=O)c1nccc(-c2c(-c3ccc(F)c(OCCc4ccccc4)c3)nc3sccn23)n1 in this test
Response: inactive
